assay: physchem; conditions: formic acid
Outcome measure: logP
Lab note: jot the number down without any unit.

Query: What does the record list as logP for c1cc2c(s1)C(NC1=NCCO1)CC2 (stereo not shown) ?
Reply: 0.42

====

# Lookup of reported logP keyed by entry
assay: logP determination (acidic, formic acid); conditions: acidic
Lab note: jot the number down without any unit.

COCCNC(=S)N1CCO/C1=N\C1CCc2ncccc21 (stereo not drawn) : 1.03
COCCNC(=S)N1CCO/C1=N\C1CCc2ccsc21 (stereo not drawn) : 3.32

Query: What does the record list as logP for O=C(NCCCl)NC1CCc2ncccc21 (stereo not drawn) ?
Reply: 0.23

====

assay: logP determination (acidic, formic acid); settings: formic acid
Outcome measure: logP
Lab note: jot the number down without any unit.

Query: What does the record list as logP for O=C(NCCCl)NC1CCc2ccsc21 (stereo not shown) ?
Reply: 1.77
